Data provenance: patent US20210214435A1

Biological target: human GPVI-Fc (isoform and haplotype not stated) used in the competition ELISA (human) (UniProt Q9HCN6)
Assay: Competition ELISA (MSD): human GPVI-Fc preincubated with Fab, then on coated VitroCol (competitor)
observable: Maximum inhibition at 200 nM Fab [%] (%)
Write down the numeric answer in % and omit the unit.

{"columns": ["binder", "Maximum inhibition at 200 nM Fab [%], %"],
 "data": [
  ["Fab #1 comprising a modified heavy chain constant region (Fab, V domains shown) VH: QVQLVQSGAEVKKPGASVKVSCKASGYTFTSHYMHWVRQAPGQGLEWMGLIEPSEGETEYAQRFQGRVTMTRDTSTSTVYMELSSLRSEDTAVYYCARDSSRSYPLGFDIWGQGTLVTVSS VL: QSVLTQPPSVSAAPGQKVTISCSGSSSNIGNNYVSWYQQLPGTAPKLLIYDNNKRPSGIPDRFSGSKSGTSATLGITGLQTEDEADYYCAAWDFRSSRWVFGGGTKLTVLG", 79]
]}

Let us move to another entry and its Maximum inhibition at 200 nM Fab [%].
Input line: Which Maximum inhibition at 200 nM Fab [%] value belongs to Reference Control Antibody RefFab #1 (humanized GPVI antibody of WO2011073954A2, SANOFI) (Fab, V domains shown) VH: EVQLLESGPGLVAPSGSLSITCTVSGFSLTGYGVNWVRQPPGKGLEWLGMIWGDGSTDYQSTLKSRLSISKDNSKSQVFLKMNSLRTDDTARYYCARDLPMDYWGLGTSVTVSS VL: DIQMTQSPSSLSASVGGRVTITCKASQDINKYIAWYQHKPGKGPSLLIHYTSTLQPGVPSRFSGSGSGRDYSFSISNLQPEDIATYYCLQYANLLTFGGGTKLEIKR ?
Output line: 100
